procedure-details: Pharmacokinetics study in rats (plasma and brain)
Assay type: in vivo, Sprague−Dawley rats
applied-conditions: Sprague-Dawley, rat, plasma, ip, 10 mg/kg, 10 mg/kg IP, tissue not specified, read-out: half-life (converted)
Protocol: Given their adequate in vitro stability profiles, we next evaluated the in vivo pharmacokinetic profiles of 14, 15, 17, and 18 in rats. Sprague−Dawley rats were dosed with 5 mg/kg (14, 15, 17) or 10 mg/kg (18), i.p., and plasma and brain levels of each drug were measured 0−6 h postdose. All animal experiments were performed following the protocols evaluated and approved by the Animal Care and Use Committee at Johns Hopkins University (Ethics Approval Number: RA24M403). […]

structure-smiles-string	half-life
Cc1cccc(-n2cc(CN3CCN(c4cccc5ccccc45)CC3)nn2)c1	~2.5 h

* * *

tested-system: human D4R (Homo sapiens)
Sequence (P21917 1-419): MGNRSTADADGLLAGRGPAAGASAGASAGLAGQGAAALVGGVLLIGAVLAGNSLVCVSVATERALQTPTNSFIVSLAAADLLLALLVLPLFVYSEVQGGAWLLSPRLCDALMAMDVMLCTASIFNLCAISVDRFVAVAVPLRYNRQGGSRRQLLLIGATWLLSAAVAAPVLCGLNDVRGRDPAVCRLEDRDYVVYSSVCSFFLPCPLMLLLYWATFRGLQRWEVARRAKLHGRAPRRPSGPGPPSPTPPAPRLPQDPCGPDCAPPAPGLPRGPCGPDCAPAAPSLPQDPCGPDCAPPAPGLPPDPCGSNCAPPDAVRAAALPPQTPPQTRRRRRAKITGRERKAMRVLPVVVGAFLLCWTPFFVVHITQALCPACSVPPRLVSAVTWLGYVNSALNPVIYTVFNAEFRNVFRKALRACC
applied-conditions: read-out: D4R Emax (%)
As shown below, each of these compounds has a reported Emax value.

compound	tested-system	scale-unit	Emax
Cc1cccc(NC(=O)CN2CCC(c3ccccc3)CC2)c1 [Compound 5]	human D4R (Homo sapiens)	%	42
CCc1cccc(NC(=O)CN2CCN(c3ccccn3)CC2)c1 [Compound 3]	human D4R (Homo sapiens)	%	59
Cc1cccc(-n2cc(CN3CCN(c4ccccn4)CC3)nn2)c1 [Compound 15]	human D4R (Homo sapiens)	%	43
Cc1cccc(-n2cc(CN3CCC(c4ccccc4)CC3)nn2)c1 [Compound 14]	human D4R (Homo sapiens)	%	30
Cc1cccc(-n2cc(CN3CCN(c4ncccn4)CC3)nn2)c1 [Compound 16]	human D4R (Homo sapiens)	%	39
Cc1cccc(-n2cc(CN3CCN(c4cccc5ccccc45)CC3)nn2)c1 [Compound 18]	human D4R (Homo sapiens)	%	24
Cc1cccc(NC(=O)CN2CCN(c3ncccn3)CC2)c1 [Compound 4]	human D4R (Homo sapiens)	%	60
Cc1cccc(NC(=O)CN2CCN(c3ccccn3)CC2)c1 [Compound 2]	human D4R (Homo sapiens)	%	65

* * *

tested-system: human D2LR (Homo sapiens)
Sequence (P14416 whole entry): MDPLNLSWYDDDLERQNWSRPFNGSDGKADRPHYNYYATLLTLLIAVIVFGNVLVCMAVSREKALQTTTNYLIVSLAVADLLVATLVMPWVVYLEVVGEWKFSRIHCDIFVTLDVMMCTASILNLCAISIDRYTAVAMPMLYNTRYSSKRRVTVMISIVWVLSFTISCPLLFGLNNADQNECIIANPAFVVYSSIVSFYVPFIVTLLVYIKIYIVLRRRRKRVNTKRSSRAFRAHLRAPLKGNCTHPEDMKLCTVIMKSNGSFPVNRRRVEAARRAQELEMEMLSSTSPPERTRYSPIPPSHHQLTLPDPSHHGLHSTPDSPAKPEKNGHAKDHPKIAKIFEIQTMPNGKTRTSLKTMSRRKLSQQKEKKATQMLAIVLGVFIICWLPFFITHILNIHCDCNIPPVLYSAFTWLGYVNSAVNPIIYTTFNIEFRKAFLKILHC
measurement-label: Ki (µM)

compound	tested-system	relation	recorded-number
Cc1cccc(-n2cc(CN3CCN(c4ccc(Cl)cn4)CC3)nn2)c1 [Compound 17]	human D2LR (Homo sapiens)	>	100
Cc1cccc(-n2cc(CN3CCN(c4cccc5ccccc45)CC3)nn2)c1 [Compound 18]	human D2LR (Homo sapiens)	=	6.54

* * *

tested-system: D1 (Homo sapiens, UniProt P21728)
Construct: Psychoactive Drug Screening Program (PDSP)
Sequence (P21728 whole entry): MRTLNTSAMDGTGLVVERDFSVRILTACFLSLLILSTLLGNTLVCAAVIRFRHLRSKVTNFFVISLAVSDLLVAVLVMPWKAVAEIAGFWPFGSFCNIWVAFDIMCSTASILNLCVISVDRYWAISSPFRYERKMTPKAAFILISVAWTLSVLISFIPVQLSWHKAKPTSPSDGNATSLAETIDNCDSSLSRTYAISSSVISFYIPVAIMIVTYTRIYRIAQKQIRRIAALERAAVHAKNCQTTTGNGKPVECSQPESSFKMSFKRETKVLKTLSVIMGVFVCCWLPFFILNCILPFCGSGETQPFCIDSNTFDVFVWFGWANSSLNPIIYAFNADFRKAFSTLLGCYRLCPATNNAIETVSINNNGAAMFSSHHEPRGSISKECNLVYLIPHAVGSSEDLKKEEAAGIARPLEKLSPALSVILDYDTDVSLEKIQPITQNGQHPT
procedure-details: PDSP primary screen and secondary assay, D1
Type: binding
Text: Receptor Primary Secondary Primary Secondary Primary Secondary Primary Secondary screen assay screen assay screen assay screen assay […] inhibition in primary assessment.

molecule	Ki (nM)
Cc1cccc(-n2cc(CN3CCN(c4cccc5ccccc45)CC3)nn2)c1 [Compound 18]	783
